System: MS2 coat protein
Test: apparent KD of MS2 coat protein; designed switch direction (-1 OFF switch, 1 ON switch): -1; higher = weaker reporter binding
Details: input ligand: none
Here the recorded apparent KD of MS2 coat protein is given for each entry.

{"columns": ["Record sequence", "apparent KD of MS2 coat protein"],
 "data": [
  ["AUUUAUGGAGGAUAUACUUGAGGAUCACCCAAGUGGAGUCCCAAAUGGGCGGUAAAUAGUAGAAGGCCGUCUUA [jl-ex3-4.49 ViennaUCT mod] (Eterna round: R97, puzzle: Exclusion 3)", "16.5 nM"],
  ["AGUUCAAGGAAUUCUUCUGACAUGAGGAUCACCCAUGUGCUUUGCAAGUGUUGCUCGUCGCCUAGAACGUUAAGUAA [Eternabot (Original) Solution 32] (Eterna round: R97, puzzle: Sensor, turn-off variant 1)", "225 nM"],
  ["UUUAAGGCUGAGGAUAUGUGGUCCGCCAAAGACAUAGAAGGUAGCACAUGAGGAUCACCCAUGUCACGAAAAGU [Eternabot (L1) Solution 81] (Eterna round: R97, puzzle: Exclusion 6)", "52.7 nM"],
  ["CUUUUGUGAGGAUAUGGUCUCGAUGACAUGAGGAUCACCCAUGUAACAUGGGACUUGUGACUAGAAGGCACUAACG [JR_Ex5_Sub024] (Eterna round: R97, puzzle: Exclusion 5)", "16.4 nM"],
  ["AAAAGAUAAGGAUAUUGAAGGUUCGACAUGAGGAUCACCCAUGUUAUGUUGGAAAAGGGACAAGAAGGUAUGAAAG [salish99_ex5_r4_203] (Eterna round: R97, puzzle: Exclusion 5)", "41.8 nM"],
  ["GUGAGUGGUCAGGAUAUGCUGUACAAAAGUACAGCAGAAGGGAUUACAUGAGGAUCACCCAUGUUUACUUCAUG [Omei Ex6 B4] (Eterna round: R97, puzzle: Exclusion 6)", "90.2 nM"],
  ["ACAUCACAUGAGGAUCACCCAUGUCAGGAUAUUCAGCGUAGCAUGCUACCUAACAUCAGAAGAAGGGACACGUA [First Design] (Eterna round: R97, puzzle: Exclusion 1)", "68.2 nM"],
  ["UAUUCACAAGCGAGAUCCCACAUGAGGAUCACCCAUGUGCUCGUCUUAUAAGGUACUGUGACGAAAGUCACGGUACC [Sensor 3, v1 - 91 v25] (Eterna round: R97, puzzle: Sensor, turn-off variant 1)", "20 nM"],
  ["AGGUCCUUCUGGAGACAUGAGGAUCACCCAUGUCGAGUCAGCGAGGAUAUCGGUUAAUAAUGUGAUGAGAAGGCGCAGACCGAU [Ex NG3 #53] (Eterna round: R96, puzzle: Exclusion NG 3)", "11.3 nM"]
]}
